TGT: BTK kinase (Homo sapiens (Human), UniProt Q06187)
Sequence (Q06187 whole entry): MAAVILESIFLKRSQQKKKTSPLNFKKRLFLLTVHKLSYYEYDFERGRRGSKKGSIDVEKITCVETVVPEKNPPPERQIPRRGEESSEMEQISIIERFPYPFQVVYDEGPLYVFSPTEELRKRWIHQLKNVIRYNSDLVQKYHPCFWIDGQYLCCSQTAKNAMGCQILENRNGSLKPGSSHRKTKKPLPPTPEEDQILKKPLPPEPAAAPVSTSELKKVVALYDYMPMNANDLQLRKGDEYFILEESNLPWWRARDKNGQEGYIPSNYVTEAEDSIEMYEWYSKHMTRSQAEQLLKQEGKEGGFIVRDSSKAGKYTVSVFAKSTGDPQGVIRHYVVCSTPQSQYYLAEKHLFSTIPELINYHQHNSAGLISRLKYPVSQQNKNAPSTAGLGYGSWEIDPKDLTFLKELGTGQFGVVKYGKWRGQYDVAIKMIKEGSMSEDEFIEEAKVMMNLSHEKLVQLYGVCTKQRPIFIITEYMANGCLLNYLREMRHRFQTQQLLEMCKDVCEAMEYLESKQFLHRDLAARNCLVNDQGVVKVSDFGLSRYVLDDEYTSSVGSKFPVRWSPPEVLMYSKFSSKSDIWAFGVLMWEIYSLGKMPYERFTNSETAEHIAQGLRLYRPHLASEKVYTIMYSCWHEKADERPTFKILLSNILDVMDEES
Lab note - cut at 10 nM for IC50: 1.0 if strictly below, 0.0 if not.

Examples with answers:
C=CC(=O)N1C[C@H]2[C@@H]([C@H]1c1nc(-c3ccc(C(C)(O)c4ccccc4)cc3)c3c(N)nccn13)C2(C)C (stereo partly shown) [Example 75]; 0.0
CC#CC(=O)N1CC2(CC2)C[C@H]1c1nc(-c2ccc(C(=O)Nc3cc(C(F)(F)F)ccn3)cc2)c2c(N)nccn12 [Example 40]; 0.0
C=CC(=O)N1C2CCC1(c1nc(-c3ccc(Oc4ccccc4)cc3)c3c(N)nccn13)COC2 (stereo not shown) [Example 104]; 1.0
CC#CC(=O)N1C2CCC1(c1nc(-c3ccc(C(=O)Nc4ccccn4)cc3)c3c(N)nccn13)COC2 (stereo not shown) [Example 12]; 0.0
C=CC(=O)N1C2C[C@@H](C1c1nc(-c3ccc(C(C)(O)c4ccccc4)cc3)c3c(N)nccn13)N(C(C)C)C2 (stereo partly shown) [Example 89]; 0.0

[ask] Dear reviewer, please state whether C=CC(=O)N1C2C[C@@H](C1c1nc(-c3ccc(C(=O)Nc4ccccn4)cc3)c3c(N)nccn13)N(C(C)=O)C2 (stereo partly shown) [Example 18] has IC50 strictly beneath 10 nM.
[reply] 1.0

[ask] Quick check: does CC#CC(=O)N1C(c2nc(-c3ccc(C(=O)Nc4ccccn4)cc3)c3c(N)nccn23)CC2CC21 (stereo not shown) [Example 25] have IC50 under 10 nM?
[reply] 0.0

----------
Tested on: TMD8 cells
ASSAY PROCEDURE: Cell proliferation inhibition in vitro, TMD8 cells by CCK-8 method
Type: cell-based
REPORTED CONDITIONS: Homo sapiens, 72 hours, read-out: Inhibitions of cell activities IC50 (nM) TMD8
Lab note - cut at 1 nM for IC50: criterion met if strictly below, criterion not met if not.

Please review the entries below; each comes with its answer.
C=CC(=O)N1C2C[C@@H](C1c1nc(-c3ccc(C(=O)Nc4cc(C(F)(F)F)ccn4)cc3)c3c(N)nccn13)N(C(C)C)C2 (stereo partly shown) [Example 55]; criterion met
C=CC(=O)N1CC2CCCC2C1c1nc(-c2ccc(C(=O)Nc3cc(C(F)(F)F)ccn3)cc2)c2c(N)nccn12 (stereo not shown) [Example 42]; criterion met
CC#CC(=O)N1CC2(CC2)C[C@H]1c1nc(-c2ccc(C(C)(O)c3ccccc3)cc2)c2c(N)nccn12 (stereo partly shown) [Example 73]; criterion not met
C=CC(=O)N1CC2CCCC2C1c1nc(-c2ccc(Oc3ccccc3)cc2)c2c(N)nccn12 (stereo not shown) [Example 96]; criterion not met
C=CC(=O)N1C2CC[C@@H](C2)C1c1nc(-c2ccc(C(C)(O)c3ccccc3)cc2)c2c(N)nccn12 (stereo partly shown) [Example 79]; criterion not met

[ask] Please indicate whether the reported IC50 of C=CC(=O)N1CC2(CC2)C[C@H]1c1nc(-c2cccc(C(=O)Nc3ccccn3)c2)c2c(N)nccn12 [Example 124] is strictly below 1 nM.
[reply] criterion not met

[ask] Would you kindly verify if IC50 of C=CC(=O)N1C2CC[C@@H](C2)C1c1nc(-c2ccc(C(=O)Nc3cc(C(F)(F)F)ccn3)cc2)c2c(N)nccn12 (stereo partly shown) [Example 46] is strictly less than 1 nM?
[reply] criterion not met

----------
ASSAY PROCEDURE: Pharmacokinetic test in SD rats (oral 10 mg/kg, intravenous 1 mg/kg)
Assay type: in vivo
REPORTED CONDITIONS: SD rat, oral 10 mg/kg vs intravenous 1 mg/kg
Protocol: SD rat, male (purchased from Shanghai Sippr-Bk Laboratory Animal Co., Ltd.), each tested compound was administered at a single dose to SD rats by oral administration (10 mg/kg, 3 rats in each group) and intravenous administration (1 mg/kg, 3 rats in each group) for the pharmacokinetic study. […] 200 μL of supernatant was taken and added to a 96-well sample plate and the samples were analyzed by LC-MS/MS.
Field: F (po) %. Provide a value for each of the compounds that follow.
Answers are plain numbers, in %.

Below: 3 compounds and their reported F (po) %.
C=CC(=O)N1C[C@H]2[C@@H]([C@H]1c1nc(-c3ccc(C(=O)Nc4ccccn4)cc3)c3c(N)nccn13)C2(C)C [Example 5]; 20.64
C=CC(=O)N1CC2CCCC2C1c1nc(-c2ccc(Oc3ccccc3)cc2)c2c(N)nccn12 (stereo not drawn) [Example 96]; 34.53
C=CC(=O)N1CC2CCCC2C1c1nc(-c2ccc(C(=O)Nc3ccccn3)cc2)c2c(N)nccn12 (stereo not drawn) [Example 3]; 52.55

Go through the list and state F (po) % for each entry.
1. CC#CC(=O)N1CCC[C@H]1c1nc(-c2ccc(C(=O)Nc3ccccn3)cc2)c2c(N)nccn12 [ACP-196, reference compound]
2. CC#CC(=O)N1C2CC[C@@H](C2)C1c1nc(-c2ccc(C(=O)Nc3cc(C(F)(F)F)ccn3)cc2)c2c(N)nccn12 (stereo partly drawn) [Example 47]
3. C=CC(=O)N1[C@@H]2CC[C@@H](C2)[C@H]1c1nc(-c2ccc(C(=O)Nc3ccccn3)cc2)c2c(N)nccn12 [Example 22]
4. C=CC(=O)N1CCC[C@@H](n2nc(-c3ccc(Oc4ccccc4)cc3)c3c(N)ncnc32)C1 [Ibrutinib, reference compound]
5. C=CC(=O)N1C2CC[C@@H](C2)C1c1nc(-c2ccc(C(C)(O)c3ccccc3)cc2)c2c(N)nccn12 (stereo partly drawn) [Example 79]
6. C=CC(=O)N1C2CCC1(c1nc(-c3ccc(C(=O)Nc4ccccn4)cc3)c3c(N)nccn13)COC2 (stereo not drawn) [Example 11]

[reply]
1: 19.75; 2: 21.89; 3: 36.56; 4: 2.67; 5: 27.12; 6: 34.59
